Numbers sourced from PubChem BioAssay AID1963450.

System: 556581-035-R-J1-PDC complex spheroid growth
Assay: Anticancer human tumor 556581-035-R-J1-PDC patient-derived ovarian carcinoma cell line growth inhibition [Asc]; active = viability on the fitted dose curve at most 10% of control; inactive = the rest
Conditions: second compound 10 µM; first compound 3.16 µM
Outcome codes: active, inactive

compound	answer-label
C=C(F)C(=O)N1CCN(c2nc(OCC3CCCN3C)nc3c2CCN(c2cccc4cccc(Cl)c24)C3)CC1CC#N (centres undefined) + Cc1c(S(C)(=O)=O)c(-c2cc(F)cc(N3CCN(c4ccc(NS(=O)(=O)c5ccc(NC(CCN6CCC(C(=O)OCCCP(=O)(O)O)CC6)CSc6ccccc6)c(S(=O)(=O)C(F)(F)F)c5)cc4)CC3)c2)c(-c2ccc(Cl)cc2)n1C(C)C	active
O=C(c1cc(Cc2n[nH]c(=O)c3ccccc23)ccc1F)N1CCN(C(=O)C2CC2)CC1 + Cc1c(S(C)(=O)=O)c(-c2cc(F)cc(N3CCN(c4ccc(NS(=O)(=O)c5ccc(NC(CCN6CCC(C(=O)OCCCP(=O)(O)O)CC6)CSc6ccccc6)c(S(=O)(=O)C(F)(F)F)c5)cc4)CC3)c2)c(-c2ccc(Cl)cc2)n1C(C)C	inactive
C=CC(=O)N1CCN(c2nc(=O)n(-c3c(C)ccnc3C(C)C)c3nc(-c4c(O)cccc4F)c(F)cc23)C(C)C1 (centres undefined) + Cc1c(S(C)(=O)=O)c(-c2cc(F)cc(N3CCN(c4ccc(NS(=O)(=O)c5ccc(NC(CCN6CCC(C(=O)OCCCP(=O)(O)O)CC6)CSc6ccccc6)c(S(=O)(=O)C(F)(F)F)c5)cc4)CC3)c2)c(-c2ccc(Cl)cc2)n1C(C)C	inactive
C#Cc1c(F)ccc2cc(O)cc(-c3ncc4c(N5CC6CCC(C5)N6)nc(OCC56CCCN5CC(F)C6)nc4c3F)c12 (centres undefined) + Cc1c(S(C)(=O)=O)c(-c2cc(F)cc(N3CCN(c4ccc(NS(=O)(=O)c5ccc(NC(CCN6CCC(C(=O)OCCCP(=O)(O)O)CC6)CSc6ccccc6)c(S(=O)(=O)C(F)(F)F)c5)cc4)CC3)c2)c(-c2ccc(Cl)cc2)n1C(C)C	inactive

###

Listing of entries alongside the reported viability, T/C.
Test system: 556581-035-R-J1-PDC complex spheroid growth
Assay: Anticancer human tumor 556581-035-R-J1-PDC cell line growth inhibition [Asc];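 also: spheroids exposed to agents for 7 days before viability read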
Conditions: second compound 0.0316 µM; first compound 0.00316 µM; stronger effect = lower value

compound	measurement-target	viability, T/C [%]
CCN1CCN(Cc2ccc(Nc3ncc(F)c(-c4cc(F)c5nc(C)n(C(C)C)c5c4)n3)nc2)CC1 + CNC(C)C(=O)NC1CN(S(=O)(=O)c2cccc(S(=O)(=O)N3CCC4CCC(C(=O)NC(c5ccccc5)c5ccccc5)N4C(=O)C(NC(=O)C(C)NC)C3)c2)CCC2CCC(C(=O)NC(c3ccccc3)c3ccccc3)N2C1=O	556581-035-R-J1-PDC complex spheroid growth	87.5
COc1c(OCCCN2CCOCC2)ccc2c3n(c(=NC(=O)c4cnc(N)nc4)nc12)CCN3 + CNC(C)C(=O)NC1CN(S(=O)(=O)c2cccc(S(=O)(=O)N3CCC4CCC(C(=O)NC(c5ccccc5)c5ccccc5)N4C(=O)C(NC(=O)C(C)NC)C3)c2)CCC2CCC(C(=O)NC(c3ccccc3)c3ccccc3)N2C1=O	556581-035-R-J1-PDC complex spheroid growth	64.2
NC1CCC(NC2CC2c2ccccc2)CC1 (stereo not given) + CNC(C)C(=O)NC1CN(S(=O)(=O)c2cccc(S(=O)(=O)N3CCC4CCC(C(=O)NC(c5ccccc5)c5ccccc5)N4C(=O)C(NC(=O)C(C)NC)C3)c2)CCC2CCC(C(=O)NC(c3ccccc3)c3ccccc3)N2C1=O	556581-035-R-J1-PDC complex spheroid growth	87.4
Cn1ncnc1[C@H]1c2n[nH]c(=O)c3cc(F)cc(c23)N[C@@H]1c1ccc(F)cc1 + CNC(C)C(=O)NC1CN(S(=O)(=O)c2cccc(S(=O)(=O)N3CCC4CCC(C(=O)NC(c5ccccc5)c5ccccc5)N4C(=O)C(NC(=O)C(C)NC)C3)c2)CCC2CCC(C(=O)NC(c3ccccc3)c3ccccc3)N2C1=O	556581-035-R-J1-PDC complex spheroid growth	79.2
O=C(c1ccc(F)c(F)c1Nc1ccc(I)cc1F)N1CC(O)([C@@H]2CCCCN2)C1 + CNC(C)C(=O)NC1CN(S(=O)(=O)c2cccc(S(=O)(=O)N3CCC4CCC(C(=O)NC(c5ccccc5)c5ccccc5)N4C(=O)C(NC(=O)C(C)NC)C3)c2)CCC2CCC(C(=O)NC(c3ccccc3)c3ccccc3)N2C1=O	556581-035-R-J1-PDC complex spheroid growth	86.4

###

Tested on: 556581-035-R-J1-PDC complex spheroid growth
Assay: Anticancer human tumor 556581-035-R-J1-PDC cell line growth inhibition [Asc];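 also: spheroids exposed to agents for 7 days before viability read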
Details: curve of first compound; second compound 0.316 µM
From the text: Multicellular complex tumor spheroid response to apoptosis pathway targeting inhibitors Alrizomadlin, Pelcitoclax, and Dasminapant in combination with a variety of drugs and investigational agents in selected tumor cell lines […] Compounds. […] If the clinical Cmax for an agent had not been determined, the highest concentration tested was 10 microM. […]
readout-type: IC50 (nM)

molecule	readout-type	endpoint-unit	bound-operator	reported-result
C=C(F)C(=O)N1CCN(c2nc(OCC3CCCN3C)nc3c2CCN(c2cccc4cccc(Cl)c24)C3)CC1CC#N (centres undefined) + Cc1c(S(C)(=O)=O)c(-c2cc(F)cc(N3CCN(c4ccc(NS(=O)(=O)c5ccc(NC(CCN6CCC(C(=O)OCCCP(=O)(O)O)CC6)CSc6ccccc6)c(S(=O)(=O)C(F)(F)F)c5)cc4)CC3)c2)c(-c2ccc(Cl)cc2)n1C(C)C	IC50	nM	=	1550
Cc1nc(N2CCC3(CC2)COC(C)C3N)c(CO)nc1Sc1ccnc(N)c1Cl (centres undefined) + Cc1c(S(C)(=O)=O)c(-c2cc(F)cc(N3CCN(c4ccc(NS(=O)(=O)c5ccc(NC(CCN6CCC(C(=O)OCCCP(=O)(O)O)CC6)CSc6ccccc6)c(S(=O)(=O)C(F)(F)F)c5)cc4)CC3)c2)c(-c2ccc(Cl)cc2)n1C(C)C	IC50	nM	=	389
CCN1CCN(Cc2ccc(Nc3ncc(F)c(-c4cc(F)c5nc(C)n(C(C)C)c5c4)n3)nc2)CC1 + Cc1c(S(C)(=O)=O)c(-c2cc(F)cc(N3CCN(c4ccc(NS(=O)(=O)c5ccc(NC(CCN6CCC(C(=O)OCCCP(=O)(O)O)CC6)CSc6ccccc6)c(S(=O)(=O)C(F)(F)F)c5)cc4)CC3)c2)c(-c2ccc(Cl)cc2)n1C(C)C	IC50	nM	>	1000
NC1CCC(NC2CC2c2ccccc2)CC1 (centres undefined) + CNC(C)C(=O)NC1CN(S(=O)(=O)c2cccc(S(=O)(=O)N3CCC4CCC(C(=O)NC(c5ccccc5)c5ccccc5)N4C(=O)C(NC(=O)C(C)NC)C3)c2)CCC2CCC(C(=O)NC(c3ccccc3)c3ccccc3)N2C1=O	IC50	nM	>	100

###

Tested on: 556581-035-R-J1-PDC complex spheroid growth
Assay: Anticancer human tumor 556581-035-R-J1-PDC cell line growth inhibition [Asc];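 also: spheroids exposed to agents for 7 days before viability read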
Conditions: curve of first compound; second compound 0.1 µM
pIC50: −log10 of the molar value.
Parameter pIC50: see the listing below.

molecule	pIC50
NC1CCC(NC2CC2c2ccccc2)CC1 (stereo unspecified) + Cc1c(S(C)(=O)=O)c(-c2cc(F)cc(N3CCN(c4ccc(NS(=O)(=O)c5ccc(NC(CCN6CCC(C(=O)OCCCP(=O)(O)O)CC6)CSc6ccccc6)c(S(=O)(=O)C(F)(F)F)c5)cc4)CC3)c2)c(-c2ccc(Cl)cc2)n1C(C)C	< 7.00
NC1CCC(NC2CC2c2ccccc2)CC1 (stereo unspecified) + CNC(C)C(=O)NC1CN(S(=O)(=O)c2cccc(S(=O)(=O)N3CCC4CCC(C(=O)NC(c5ccccc5)c5ccccc5)N4C(=O)C(NC(=O)C(C)NC)C3)c2)CCC2CCC(C(=O)NC(c3ccccc3)c3ccccc3)N2C1=O	< 7.00
O=C(c1ccc(F)c(F)c1Nc1ccc(I)cc1F)N1CC(O)([C@@H]2CCCCN2)C1 + Cc1c(S(C)(=O)=O)c(-c2cc(F)cc(N3CCN(c4ccc(NS(=O)(=O)c5ccc(NC(CCN6CCC(C(=O)OCCCP(=O)(O)O)CC6)CSc6ccccc6)c(S(=O)(=O)C(F)(F)F)c5)cc4)CC3)c2)c(-c2ccc(Cl)cc2)n1C(C)C	7.03
COc1c(OCCCN2CCOCC2)ccc2c3n(c(=NC(=O)c4cnc(N)nc4)nc12)CCN3 + CNC(C)C(=O)NC1CN(S(=O)(=O)c2cccc(S(=O)(=O)N3CCC4CCC(C(=O)NC(c5ccccc5)c5ccccc5)N4C(=O)C(NC(=O)C(C)NC)C3)c2)CCC2CCC(C(=O)NC(c3ccccc3)c3ccccc3)N2C1=O	8.02
C=CC(=O)N1CCN(c2nc(=O)n(-c3c(C)ccnc3C(C)C)c3nc(-c4c(O)cccc4F)c(F)cc23)C(C)C1 (stereo unspecified) + CNC(C)C(=O)NC1CN(S(=O)(=O)c2cccc(S(=O)(=O)N3CCC4CCC(C(=O)NC(c5ccccc5)c5ccccc5)N4C(=O)C(NC(=O)C(C)NC)C3)c2)CCC2CCC(C(=O)NC(c3ccccc3)c3ccccc3)N2C1=O	< 5.00
NC(=O)C(=Cn1cnc(-c2cc(C(F)(F)F)cc(C(F)(F)F)c2)n1)c1cncnc1 + CNC(C)C(=O)NC1CN(S(=O)(=O)c2cccc(S(=O)(=O)N3CCC4CCC(C(=O)NC(c5ccccc5)c5ccccc5)N4C(=O)C(NC(=O)C(C)NC)C3)c2)CCC2CCC(C(=O)NC(c3ccccc3)c3ccccc3)N2C1=O	< 6.52
